Hey, just so you know, these numbers are from patent US5663346A.

Target: p45 v-abl tyrosine kinase
Assay: p45 v-abl Kinase Assay ((Val5)-Angiotensin II phosphorylation)
Format: biochemical, Abelson murine leukemia virus
Details: in-vitro; (Val5)-Angiotensin II 2 mM, ATP 50 mM, 40 ng abl-kinase, pH 8.0; read-out: Inhibition of p-45 v-abl kinase, IC50
observable: IC50 (nM)
Give just the number in nM; leave the unit off.

Item: `N#Cc1ccc2c(c1)C(=Cc1c[nH]c3ncccc13)C(=O)N2` | System: p45 v-abl tyrosine kinase | IC50: 980

Bench note, p45 v-abl tyrosine kinase: entry Nc1ccc2c(c1)C(=Cc1c[nH]c3ncccc13)C(=O)N2 [ditrifluoroacetate] , its IC50 = 90
